# subject.of.test: T1, VPS26A/VPS26B heterodimer (Arabidopsis thaliana, UniProt Q9FJD0 1-302; Q9T091 1-303)
# T1 chain 1: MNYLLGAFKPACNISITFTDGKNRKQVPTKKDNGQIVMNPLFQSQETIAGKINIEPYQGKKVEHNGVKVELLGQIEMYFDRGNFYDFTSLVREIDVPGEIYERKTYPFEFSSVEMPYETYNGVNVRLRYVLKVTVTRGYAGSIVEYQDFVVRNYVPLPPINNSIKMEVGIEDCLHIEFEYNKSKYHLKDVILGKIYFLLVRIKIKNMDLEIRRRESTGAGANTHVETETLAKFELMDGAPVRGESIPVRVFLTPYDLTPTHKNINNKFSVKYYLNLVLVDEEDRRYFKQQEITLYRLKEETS
# T1 chain 2: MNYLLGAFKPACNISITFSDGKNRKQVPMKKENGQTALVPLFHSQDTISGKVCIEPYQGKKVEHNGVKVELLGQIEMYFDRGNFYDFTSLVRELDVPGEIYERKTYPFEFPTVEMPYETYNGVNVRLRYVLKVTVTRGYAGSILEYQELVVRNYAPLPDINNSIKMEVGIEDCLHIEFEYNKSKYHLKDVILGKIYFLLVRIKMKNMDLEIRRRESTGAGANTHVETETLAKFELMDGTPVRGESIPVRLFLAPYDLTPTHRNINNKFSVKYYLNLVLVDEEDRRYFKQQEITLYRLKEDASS
# test.summary: ITC
measured.property: pKd
Answers are plain numbers, as −log10 of the molar value.

The binder listed as AtRGS1 RGS domain plus C-terminal tail (residues 284-459) (domain or fragment) KEEFRPVDPNEPLDKLLLNKRFRHSFMEFADSCYAGETLHFFEEVYEHGKIPEDDSIRRIYMARHIMEKFIVAGAEMELNLSHKTRQEILTTQDLTHTDLFKNALNEVMQLIKMNLVRDYWSSIYFIKFKEEESCHEAMHKEGYSFSSPRLSSVQGSDDPFYQEHMSKSSRCSSPG shows pKd equal to 7.66

Parameter requested: pKd. Apply to each item below.
1. GGGAMHKEGYSFSSPRLSSVQGSDDPFYQEHMSKSSRCSSPG (N-terminal GGG added to the peptide; AtRGS1 C-terminal tail, Arabidopsis thaliana, UniProt Q8H1F2, residues A421-G459; Purity 99%; also called unphosphorylated C-tail; source: synthetic peptide (UNC Peptide Core Facility)) [AtRGS1 C tail peptide (A421-G459), unphosphorylated]
2. GGGAMHKEGYSFSSPRLSSVQGSDDPFYQE (N-terminal GGG added to the peptide; AtRGS1 C-terminal tail, Arabidopsis thaliana, UniProt Q8H1F2, residues A421-E447; also called ΔC tail; RGS1 delta C-tail; source: synthetic peptide (Tufts University Peptide Core Facility)) [AtRGS1 truncated C tail peptide (A421-E447), unphosphorylated]

(A)
1. 7.20
2. 6.91
